System: Saccharomyces cerevisiae
Assay: protein stability index of tFT-peptide fusion (C-terminal peptide) (PSI (0-1 scale)); higher = more stable (slower turnover)
Conditions: genetic background: wild type; temperature: 30 C
Let's look at some sequences and their measured protein stability index.
Number only, no unit.

Sample answers from the record:
sequence-data	protein stability index
YHAVDSTMSPKN [OST4 C-terminal 12 aa]	0.719
GILCSLMEFFTN [TDA6 C-terminal 12 aa]	0.712
SQPDYKYLFDTQ [YRM1 C-terminal 12 aa]	0.623
EISNRDENSIPE [MUB1 C-terminal 12 aa]	0.677
FSNAGVEMQIRK [GNA1 C-terminal 12 aa]	0.736

Kindly review the next sequence as well.
Query string: Would you mind telling me what protein stability index value was observed for NNLHSYEKRLHN [YAR075W C-terminal 12 aa] ?
Result string: 0.7
